Collected IC50 for Epidermal growth factor receptor (Homo sapiens, UniProt P00533) across several studies; compounds listed below.
One number for each entry, in µM.

Consider the worked cases shown below.
C=CC(=O)N(C)C1CCc2c(-c3cnc4ccccc4c3)c3c(N)ncnc3n2C1 (stereo not shown) | 0.018
C=CC(=O)N1CCC[C@@H](n2nc(-c3ccc(Oc4ccncc4)cc3)c3c(N)ncc(OC)c32)C1 | 0.0105

API: value(readout= IC50, system= Epidermal growth factor receptor (Homo sapiens, UniProt P00533), query= Fc1ccc(Nc2ncnc3cnc(NCCN4CCOCC4)cc23)cn1 )
3.75

###

Ok so here's the combined literature set: pIC50 for Epidermal growth factor receptor (Homo sapiens).
pIC50: −log10 of the molar value.

Worked set:
CN1CCN(Cc2ccc3[nH]/c(=N\C(=O)c4ccnc(C#Cc5cccc(NC(=O)C(F)(F)F)c5C=O)c4)n(CC(C)(C)O)c3c2)CC1 | 6.70
C[C@@H](Nc1ncnc2[nH]c(-c3ccc(CN4CCN(CC(=O)NO)CC4)cc3)cc12)c1ccccc1 | > 7.00
C=CC(=O)N1CCc2ccc(-c3c(-c4ccc(CN5CCN(C)CC5)cc4)[nH]c4nccc(OCC)c34)cc21 | ≥ 7.00
CCc1cc(Nc2ncc(Br)c(Nc3ccc(-c4ccccc4C#N)cc3P(C)(C)=O)n2)c(OC)cc1N1CCC(N2CCN(C)CC2)CC1 | 7.51
CN(C)C/C=C/C(=O)N1CC[C@@H](n2c(Cl)c(-c3ccc(Oc4ccccc4)cc3)c3c(N)ncnc32)C1 | 5.00 to 6.00
COc1ccc(S(C)(=O)=O)cc1Nc1nccc(-c2sc(N3CCOCC3)nc2-c2cccc(NS(=O)(=O)c3c(F)cccc3F)c2OC)n1 | < 6.00
C=CC(=O)Nc1cccc(Nc2nc(Nc3ccc4c(c3)OC[C@H]3CN(C)CC(=O)N43)ncc2C(F)(F)F)c1 | > 7.00
COc1cc(N2CCC(N3CCN(C)CC3)CC2)ccc1Nc1ncc(Cl)c(Nc2cccc3c2N(S(C)(=O)=O)CC3)n1 | 9.40

Count: 3. Required value per item: pIC50.
1. C=CC(=O)N[C@H]1CCc2c(-c3cnc4ccccc4c3)c3c(N)ncnc3n2CC1
2. O=C(O)CNCc1ccc(-c2ccc3ncnc(Nc4ccc(OCc5cccc(F)c5)c(Cl)c4)c3c2)o1
3. Fc1cc(Nc2ncnc3cc(OC4CCOC4)c4c(c23)OCCO4)ccc1Cl (stereo not shown)

1. 7.48
2. > 5.00
3. > 7.30

Provide the reported pIC50 of each entry below, same order.
1. CCNC(=O)N1CCCC(c2n[nH]c3nccc(Oc4ccc(C(=O)Nc5ncc(C)s5)cc4)c23)C1 (stereo not shown)
2. Cc1ccc(Oc2ccc(Nc3ncnc4sc5c(c34)CCN(C(=O)/C=C/CN3CC(C)OC(C)C3C)C5)cc2C)cn1 (stereo not shown)

5.00 to 6.00
< 5.00
